# TARGET: DGKζ (Homo sapiens (Human), UniProt Q13574)
# Sequence (Q13574 other isoform, or with tags, fused parts or gaps): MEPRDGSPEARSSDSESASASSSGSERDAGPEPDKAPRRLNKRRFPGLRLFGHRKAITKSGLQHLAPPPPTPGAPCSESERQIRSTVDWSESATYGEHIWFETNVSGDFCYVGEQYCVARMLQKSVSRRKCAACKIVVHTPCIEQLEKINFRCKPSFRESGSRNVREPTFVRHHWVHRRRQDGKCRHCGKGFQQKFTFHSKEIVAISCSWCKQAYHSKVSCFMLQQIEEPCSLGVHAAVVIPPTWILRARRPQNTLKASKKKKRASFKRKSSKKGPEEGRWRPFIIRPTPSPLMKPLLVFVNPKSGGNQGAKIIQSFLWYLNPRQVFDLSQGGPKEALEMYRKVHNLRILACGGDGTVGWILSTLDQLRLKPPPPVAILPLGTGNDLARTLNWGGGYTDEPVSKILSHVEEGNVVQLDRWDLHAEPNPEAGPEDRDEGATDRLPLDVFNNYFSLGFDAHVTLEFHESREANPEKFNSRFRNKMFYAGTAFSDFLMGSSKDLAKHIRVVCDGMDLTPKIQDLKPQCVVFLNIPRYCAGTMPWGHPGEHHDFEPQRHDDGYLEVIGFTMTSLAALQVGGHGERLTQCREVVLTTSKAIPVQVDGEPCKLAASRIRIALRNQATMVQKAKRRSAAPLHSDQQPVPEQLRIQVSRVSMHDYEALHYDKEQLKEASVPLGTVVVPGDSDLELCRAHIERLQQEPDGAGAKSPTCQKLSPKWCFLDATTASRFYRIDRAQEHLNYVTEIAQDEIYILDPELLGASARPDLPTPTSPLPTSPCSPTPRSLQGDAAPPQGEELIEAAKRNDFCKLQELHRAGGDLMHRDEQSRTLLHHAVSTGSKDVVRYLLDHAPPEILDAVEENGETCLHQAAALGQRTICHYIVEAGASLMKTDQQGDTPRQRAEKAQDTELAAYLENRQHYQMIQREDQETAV
# ASSAY SUMMARY: Biochemical DGK IC50 assay, DGKζ ADP-Glo assay
# EXPERIMENTAL SETUP: 0.5 nM enzyme, 140 μM ATP, 80 μM DAG; read-out: DGKζ ADP-Glo assay IC50
pIC50: −log10 of the molar value.
Rule: 1.0 for pIC50 not less than 6, 0.0 for anything less.

Example entries begin here.
INPUT: Does CC[C@H]1CN(C(C)c2nc3ccccc3n2CCO)[C@H](CC)CN1c1cc(=O)n(C)c2cn(CC#N)nc12 (stereo partly shown) have a reported pIC50 of at least 6?
OUTPUT: 0.0

INPUT: Say whether CC[C@H]1CN(C(C)c2ccncc2)[C@H](CC)CN1c1cc(=O)n(C)c2cn(CC#N)nc12 (stereo partly shown) shows pIC50 of 6 or more.
OUTPUT: 0.0

INPUT: # check: pIC50 of C=C(C)n1cc2c(n1)c(N1C[C@@H](C)N(Cc3ccc(OC(F)(F)F)cc3)C[C@@H]1C)cc(=O)n2C is greater than or equal to 6
OUTPUT: 0.0

Continuing:
INPUT: Say whether CC[C@H]1CN(C(C)c2ccc(C(F)F)cn2)[C@H](CC)CN1c1cc(=O)n(C)c2cn(CC#N)nc12 (single isomer, unassigned) [Compound A347b] shows pIC50 of 6 or more.
OUTPUT: 1.0

INPUT: Answer whether pIC50 of CC[C@H]1CN(C(C)c2ccc3nccnc3c2)[C@H](CC)CN1c1cc(=O)n(CCOC)c2cn(CC#N)nc12 (stereo partly shown) is greater than or equal to 6.
OUTPUT: 1.0

INPUT: In plain terms: is recorded pIC50 at least 6 for CC[C@H]1CN(C(C)c2ccc(OCC3CCOC3)cc2)[C@H](CC)CN1c1cc(=O)n(C)c2cn(CC#N)nc12 (stereo partly shown) ?
OUTPUT: 1.0
